stated conditions: buffer; pH 7.4; 200.0 µM
attribute measured: solubility kinetic

                               line_notation  value_observed
 0                        Nc1nc(C2CCOCC2)cs1    > 27.6 µg/mL
 1   CCS(=O)(=O)N1CCN(c2ccnc3cc(Cl)ccc23)CC1      > 51 µg/mL
 2  Cc1cc(C)n2c(SCC(=O)Nc3cc(S(=O)(=O)N(C)C)ccc3C)nnc2n1    > 65.2 µg/mL
 3           CCC(=O)Oc1ccc(NC(=O)c2ccco2)cc1    > 38.9 µg/mL
 4         CN(C)C/C=C/C(O)(c1ccccc1)c1ccccc1    > 40.1 µg/mL
 5    COc1ccc(C(=O)NCCCNC(=O)c2ccc(C)nc2)cc1    > 49.1 µg/mL
 6  CCOc1ccccc1/C=C/C(=O)N1CCN(C(=O)c2ccco2)CC1    > 53.2 µg/mL
 7  CN(CC(=O)OCC(=O)NC1CCCC1)S(=O)(=O)c1ccc(Cl)cc1    > 58.3 µg/mL
 8  COc1ccc(OC)c(NC(=O)CSc2nc(O)cc(=O)n2CC(C)C)c1      > 59 µg/mL
 9       COC(=O)c1sccc1NC(=O)CNC(=O)c1ccccc1    > 47.8 µg/mL
10  CN(CCO)C(=O)c1ccc(-c2nn(C)c(=O)c3ccccc23)cc1    > 50.6 µg/mL

---

stated conditions: buffer; pH 7.4; 200.0 µM
Tick true if solubility kinetic is 30 µg/mL or greater. Tick false if solubility kinetic is less than 30 µg/mL.

>>> print(df.to_string())
                                    molecule  answer_label
 0    O=C(NCCc1ccc(C(F)(F)F)cc1)c1ccc(Cl)nc1         false
 1      Clc1ccc(C2=CSC3=NCCN23)c(Cl)c1.[Br-]          true
 2    O=C(CN1CCCC1)Nc1ccc(Br)cc1[N+](=O)[O-]         false
 3    O=C(Nc1cccc(S(=O)(=O)N2CCOCC2)c1)C1CC1          true
 4                   O=Cc1ccc2ccc3cccnc3c2n1          true
 5  O=C1ON=C(c2cccc([N+](=O)[O-])c2)/C1=C/c1ccc(O)cc1          true
 6     Cc1cccn2c(=O)nc(SCC(=O)NCc3ccco3)nc12          true
 7          O=C(NC(=O)c1ccccc1)Nc1ccc(Cl)cn1         false
 8  CC(=O)c1ccc(OC(C)c2nc3ccccc3s2)cc1 (stereo not given)         false
 9      O=C(COC(=O)C1=Cc2ccccc2OC1)NCc1ccco1         false
10  COc1cccc(C(=O)NC(C)CCc2ccccc2)c1 (stereo not given)          true
11  CN1CCc2c(sc3c2C(=O)NC(/C=C\c2ccccc2)N3)C1 (stereo not given)          true
12         C=CCNC(=O)N1CCC(c2nc3ccccc3s2)CC1          true
13  CN1CCCC(OC(=O)c2cc(F)c(F)c(F)c2F)C1.Cl (stereo not given)          true
14  O=C(c1cc2c(s1)-c1ccccc1S(=O)(=O)C2)N1CCCC1          true
15  COc1ccc(C(C)=O)cc1CN1C(=O)NC(CC(C)C)C1=O (stereo not given)          true
16   Cc1c([N+](=O)[O-])c(C(=O)NC2CCCCC2)nn1C          true
17                CSc1ccccc1C(=O)NCc1ccccc1C          true
18                 O=C1CNC(=O)N1c1ccc(Cl)cc1          true
